experiment: Clearance in Rowet nu/nu rat plasma at […], iv after 5 mins to 6 hrs; format: ADME, organism-based
readoutName: clearance (mL/min/kg)
Give bare numbers, in mL/min/kg.

Asked: For O=c1[nH]cnc2c1ncn2[C@H]1CC[C@@H](CO)O1 [DIDANOSINE] , what is its reported clearance?
Given back: 134

---

test: AUC (0 to 360 mins) in Rowet nu/nu rat plasma at 15 mg/kg, iv after 5 mins to 6 hrs; assay type: ADME, organism-based; parameters: time < 6 hr, dose 15 mg/kg, route intravenous
readoutName: AUC(0-t) at 6 h
Please give the number followed by its unit.

Asked: What value of measured AUC(0-t) at 6 h is listed for `O=C(O)CCCCCCCC(=O)OC[C@H]1CC[C@@H](n2cnc3c(=O)[nH]cnc32)O1` ?
Given back: 2680 ng·h/mL

---

assay: Clearance in Rowet nu/nu rat plasma at 15 mg/kg, iv after 5 mins to 6 hrs; assay type: ADME, organism-based; set-up: dose 15 mg/kg, route intravenous
readoutName: clearance

Asked: Could you tell me which clearance is on file for `O=C(O)CCCCCCCC(=O)OC[C@H]1CC[C@@H](n2cnc3c(=O)[nH]cnc32)O1` ?
Given back: 107 mL/min/kg

---

assay: Half life in rat at 125 mg/kg/hr, iv after 2 hrs; assay type: ADME, organism-based; set-up: route intravenous; conditions: in vivo
readoutName: half-life (h)
Give bare numbers, in h.

Asked: Dear colleague, I am looking for the recorded half-life of the following molecule: `O=c1[nH]cnc2c1ncn2[C@H]1CC[C@@H](CO)O1`
Given back: 1
